Test system: HeLa Kyoto
Experiment Description: solubility in G1/S (NP-40 vs SDS abundance) (log2 ratio); higher = more soluble
Study Conditions: cell cycle stage: G1/S
Metric: solubility in G1/S (log2)
Write the value as a bare number.

Which solubility in G1/S (log2) reading was recorded for the sequence MASLQRKGLQARILTSEEEEKLKRDQTLVSDFKQQKLEQEAQKNWDLFYKRNSTNFFKDRHWTTREFEELRSCREFEDQKLTMLEAGCGVGNCLFPLLEEDPNIFAYACDFSPRAIEYVKQNPLYDTERCKVFQCDLTKDDLLDHVPPESVDVVMLIFVLSAVHPDKMHLVLQNIYKVLKPGKSVLFRDYGLYDHAMLRFKASSKLGENFYVRQDGTRSYFFTDDFLAQLFMDTGYEEVVNEYVFRETVNKKEGLCVPRVFLQSKFLKPPKNPSPVVLGLDPKS [METTL6] ?
0.0543

Which solubility in G1/S (log2) reading was recorded for the sequence MASSLLAGERLVRALGPGGELEPERLPRKLRAELEAALGKKHKGGDSSSGPQRLVSFRLIRDLHQHLRERDSKLYLHELLEGSEIYLPEVVKPPRNPELVARLEKIKIQLANEEYKRITRNVTCQDTRHGGTLSDLGKQVRSLKALVITIFNFIVTVVAAFVCTYLGSQYIFTEMASRVLAALIVASVVGLAELYVMVRAMEGELGEL [TMEM199] ?
-0.349

Which solubility in G1/S (log2) reading was recorded for the sequence MICTFLRAVQYTEKLHRSSAKRLLLPYIVLNKACLKTEPSLRCGLQYQKKTLRPRCILGVTQKTIWTQGPSPRKAKEDGSKQVSVHRSQRGGTAVPTSQKVKEAGRDFTYLIVVLFGISITGGLFYTIFKELFSSSSPSKIYGRALEKCRSHPEVIGVFGESVKGYGEVTRRGRRQHVRFTEYVKDGLKHTCVKFYIEGSEPGKQGTVYAQVKENPGSGEYDFRYIFVEIESYPRRTIIIEDNRSQDD [TIMM21] ?
-0.209

---

Exercise: for every item that follows, state its recorded solubility change mitosis (log2).
Test system: HeLa Kyoto
Experiment Description: solubility change mitosis vs G1/S (difference of NP-40 vs SDS log2 ratios) (log2 ratio difference); higher = more soluble in mitosis
Write the value as a bare number.

Which solubility change mitosis (log2) reading was recorded for the sequence MKIKDAKKPSFPWFGMDIGGTLVKLSYFEPIDITAEEEQEEVESLKSIRKYLTSNVAYGSTGIRDVHLELKDLTLFGRRGNLHFIRFPTQDLPTFIQMGRDKNFSTLQTVLCATGGGAYKFEKDFRTIGNLHLHKLDELDCLVKGLLYIDSVSFNGQAECYYFANASEPERCQKMPFNLDDPYPLLVVNIGSGVSILAVHSKDNYKRVTGTSLGGGTFLGLCSLLTGCESFEEALEMASKGDSTQADKLVRDIYGGDYERFGLPGWAVASSFGNMIYKEKRESVSKEDLARATLVTITNNIGSVARMCAVNEKINRVVFVGNFLRVNTLSMKLLAYALDYWSKGQLKALFLEHEGYFGAVGALLGLPNFS [PANK3] ?
-0.137

Which solubility change mitosis (log2) reading was recorded for the sequence MSYRRELEKYRDLDEDEILGALTEEELRTLENELDELDPDNALLPAGLRQKDQTTKAPTGPFKREELLDHLEKQAKEFKDREDLVPYTGEKRGKVWVPKQKPLDPVLESVTLEPELEEALANASDAELCDIAAILGMHTLMSNQQYYQALSSSSIMNKEGLNSVIKPTQYKPVPDEEPNSTDVEETLERIKNNDPKLEEVNLNNIRNIPIPTLKAYAEALKENSYVKKFSIVGTRSNDPVAYALAEMLKENKVLKTLNVESNFISGAGILRLVEALPYNTSLVEMKIDNQSQPLGNKVEMEIVSMLEKNATLLKFGYHFTQQGPRLRASNAMMNNNDLVRKRRLADLTGPIIPKCRSGV [TMOD1] ?
0.357

---

Tested on: HeLa Kyoto
Experiment Description: thermal stability score vs G1/S (z-score of summed log2 fold changes over temperatures); higher = more thermally stable than in G1/S
Study Conditions: cell cycle stage: early G1 (4.5 h after nocodazole release)
Criterion: thermal stability score meeting or surpassing -0.9. Met: rule met. Not met: rule not met.

Does MRSARSTALNRGEQRAVRYYSHMKLNMAEEEDYMSDSFINVQEDIRPGLPMLRQIREARRKEEKQQEANLKNRQKSLKEEEQERRDIGLKNALGCENKGFALLQKMGYKSGQALGKSGGGIVEPIPLNIKTGKSGIGHEASLKRKAEEKLESYRKKIHMKNQAEEKAAEQFRMRLKNKQDEMKLEGDLRRSQRACQQLDVQKNIQVPREAWYWLRLEEETEEDEEEKEQDEDEYKSEDLSVLEKLQILTSYLREEHLYCIWCGTAYEDKEDLSSNCPGPTSADHD [GPATCH11] have a reported thermal stability score of at least -0.9?
rule not met

Does MAVTITLKTLQQQTFKIRMEPDETVKVLKEKIEAEKGRDAFPVAGQKLIYAGKILSDDVPIRDYRIDEKNFVVVMVTKTKAGQGTSAPPEASPTAAPESSTSFPPAPTSGMSHPPPAAREDKSPSEESAPTTSPESVSGSVPSSGSSGREEDAASTLVTGSEYETMLTEIMSMGYERERVVAALRASYNNPHRAVEYLLTGIPGSPEPEHGSVQESQVSEQPATEAAGENPLEFLRDQPQFQNMRQVIQQNPALLPALLQQLGQENPQLLQQISRHQEQFIQMLNEPPGELADISDVEGEVGAIGEEAPQMNYIQVTPQEKEAIERLKALGFPESLVIQAYFACEKNENLAANFLLSQNFDDE [RAD23A] have a reported thermal stability score of at least -0.9?
rule not met

Does "KIDINS220" have a reported thermal stability score of at least -0.9?
rule met

Does MLLSLVLHTYSMRYLLPSVVLLGTAPTYVLAWGVWRLLSAFLPARFYQALDDRLYCVYQSMVLFFFENYTGVQILLYGDLPKNKENIIYLANHQSTVDWIVADILAIRQNALGHVRYVLKEGLKWLPLYGCYFAQHGGIYVKRSAKFNEKEMRNKLQSYVDAGTPMYLVIFPEGTRYNPEQTKVLSASQAFAAQRGLAVLKHVLTPRIKATHVAFDCMKNYLDAIYDVTVVYEGKDDGGQRRESPTMTEFLCKECPKIHIHIDRIDKKDVPEEQEHMRRWLHERFEIKDKMLIEFYESPDPERRKRFPGKSVNSKLSIKKTLPSMLILSGLTAGMLMTDAGRKLYVNTWIYGTLLGCLWVTIKA [AGPAT5] have a reported thermal stability score of at least -0.9?
rule met

Does MAMQAAKRANIRLPPEVNRILYIRNLPYKITAEEMYDIFGKYGPIRQIRVGNTPETRGTAYVVYEDIFDAKNACDHLSGFNVCNRYLVVLYYNANRAFQKMDTKKKEEQLKLLKEKYGINTDPPK [SF3B6] have a reported thermal stability score of at least -0.9?
rule not met

Does MNQEKLAKLQAQVRIGGKGTARRKKKVVHRTATADDKKLQSSLKKLAVNNIAGIEEVNMIKDDGTVIHFNNPKVQASLSANTFAITGHAEAKPITEMLPGILSQLGADSLTSLRKLAEQFPRQVLDSKAPKPEDIDEEDDDVPDLVENFDEASKNEAN [BTF3L4] have a reported thermal stability score of at least -0.9?
rule met

Does MAPSGSLAVPLAVLVLLLWGAPWTHGRRSNVRVITDENWRELLEGDWMIEFYAPWCPACQNLQPEWESFAEWGEDLEVNIAKVDVTEQPGLSGRFIITALPTIYHCKDGEFRRYQGPRTKKDFINFISDKEWKSIEPVSSWFGPGSVLMSSMSALFQLSMWIRTCHNYFIEDLGLPVWGSYTVFALATLFSGLLLGLCMIFVADCLCPSKRRRPQPYPYPSKKLLSESAQPLKKVEEEQEADEEDVSEEEAESKEGTNKDFPQNAIRQRSLGPSLATDKS [TMX1] have a reported thermal stability score of at least -0.9?
rule met

Does MAYPGHPGAGGGYYPGGYGGAPGGPAFPGQTQDPLYGYFAAVAGQDGQIDADELQRCLTQSGIAGGYKPFNLETCRLMVSMLDRDMSGTMGFNEFKELWAVLNGWRQHFISFDTDRSGTVDPQELQKALTTMGFRLSPQAVNSIAKRYSTNGKITFDDYIACCVKLRALTDSFRRRDTAQQGVVNFPYDDFIQCVMSV [SRI] have a reported thermal stability score of at least -0.9?
rule not met

Does MAKTYDYLFKLLLIGDSGVGKTCLLFRFSEDAFNTTFISTIGIDFKIRTIELDGKKIKLQIWDTAGQERFRTITTAYYRGAMGIMLVYDITNEKSFDNIKNWIRNIEEHASSDVERMILGNKCDMNDKRQVSKERGEKLAIDYGIKFLETSAKSSANVEEAFFTLARDIMTKLNRKMNDSNSAGAGGPVKITENRSKKTSFFRCSLL [RAB8B] have a reported thermal stability score of at least -0.9?
rule met

Does MAQAKINAKANEGRFCRSSSMADRSSRLLESLDQLELRVEALREAATAVEQEKEILLEMIHSIQNSQDMRQISDGEREELNLTANRLMGRTLTVEVSVETIRNPQQQESLKHATRIIDEVVNKFLDDLGNAKSHLMSLYSACSSEVPHGPVDQKFQSIVIGCALEDQKKIKRRLETLLRNIENSDKAIKLLEHSKGAGSKTLQQNAESRFN [BAG2] have a reported thermal stability score of at least -0.9?
rule not met

Does MGPLPRTVELFYDVLSPYSWLGFEILCRYQNIWNINLQLRPSLITGIMKDSGNKPPGLLPRKGLYMANDLKLLRHHLQIPIHFPKDFLSVMLEKGSLSAMRFLTAVNLEHPEMLEKASRELWMRVWSRNEDITEPQSILAAAEKAGMSAEQAQGLLEKIATPKVKNQLKETTEAACRYGAFGLPITVAHVDGQTHMLFGSDRMELLAHLLGEKWMGPIPPAVNARL [GSTK1] have a reported thermal stability score of at least -0.9?
rule not met
